Assay: pharmacokinetic profile of EP 1572 after oral administration in healthy male subjects
Assay type: in vivo
Settings: human, plasma EP 1572, oral, 0.5 mg/kg, mean ± SEM, read-out: AUC (0-300) (converted)
quantity: AUC(0-t) (ng·h/mL)
Give just the number in ng·h/mL; leave the unit off.

Tell us which AUC(0-t) value is on record for CC(C)(N)C(=O)N[C@H](Cc1c[nH]c2ccccc12)C(=O)N[C@H](Cc1c[nH]c2ccccc12)NC=O [EP 1572, H-Aib-D-Trp-D-gTrp-CHO]
16.1

====

Assay: pharmacokinetic profile of EP 1572 after oral administration in healthy male subjects
Type: in vivo
Settings: human, plasma EP 1572, oral, 0.5 mg/kg, mean ± SEM
quantity: Cmax (ng/mL)
Give just the number in ng/mL; leave the unit off.

Tell us which Cmax value is on record for CC(C)(N)C(=O)N[C@H](Cc1c[nH]c2ccccc12)C(=O)N[C@H](Cc1c[nH]c2ccccc12)NC=O
7.59
